Numbers sourced from PubChem BioAssay (NCI).

Answer each item with its documented TGI.
System: OVCAR-4 ovarian
Experiment: NCI tumour cell line growth inhibition, 48 h

So, `N.N.N.N.N.N.[I-].[Os]` ? Its TGI was > 100 µM

So, O=C1N=C(c2ccccc2)OC1C(=O)c1ccccc1 (stereo not drawn) ? Its TGI was > 100 µM

So, `COc1ccc(-c2cc(=O)c3c(OC)c(OC)c(OC)c(OC)c3o2)cc1OC` ? Its TGI was > 100 µM

====

Test system: SK-OV-3 ovarian
Test: NCI tumour cell line growth inhibition, 48 h
propertyMeasured: TGI

So, `[O-][N+](CCO)(CCO)c1ncnc2nc[nH]c12` ? Its TGI was > 100 µM

So, `O=C1/C(=C\C(Cl)=C/c2ccc([N+](=O)[O-])cc2)SC(=S)N1CCc1ccc(O)cc1` ? Its TGI was 6.42 µM

So, C=C[C@]1(C)CCC2=C(CCC3C2(C)CCC[C@]3(C)CO)C1 (stereo partly specified) ? Its TGI was > 100 µM

So, `CCOC(=O)c1sc2nc(SC)nc3c2c1N=CN3c1ccccc1Cl` ? Its TGI was > 100 µM

So, Cc1ccc2c(c1)C(=O)C(Cc1ccccc1C(=O)O)C2 (stereo unspecified) ? Its TGI was > 100 µM

So, `CCOc1ccccc1N=Nc1c(-c2ccccc2)nn(C(=O)CC(=O)Nc2cccc(Cl)c2)c1-c1ccccc1` ? Its TGI was > 100 µM

So, `O=[N+]([O-])c1cc(CCl)ccc1CCl` ? Its TGI was 26 µM

So, CC(=O)Nc1ccc(C(=O)NN2C(=O)C(Cl)C2c2cc(Br)ccc2O)cc1 (stereo unspecified) ? Its TGI was > 100 µM

So, `Cn1cccc1-c1cc(-c2cccs2)[nH]c(=O)c1C#N` ? Its TGI was > 100 µM

So, Cc1cn(C2CC(O)C(Cn3cc(Cn4ncc(=O)[nH]c4=O)nn3)O2)c(=O)[nH]c1=O (stereo unspecified) ? Its TGI was > 100 µM

So, `C[C@]12CC[C@@H]3c4ccccc4CC[C@H]3[C@@H]1CC[C@@H]2O` ? Its TGI was > 100 µM

So, O=C(O)C1NCCc2c1[nH]c1ccccc21 (stereo unspecified) ? Its TGI was > 100 µM

So, `COC(=O)C1=CN=C(C(=O)OC)NN1` ? Its TGI was > 100 µM

So, `O=CN1CCN(C(=O)c2cc(Cl)cc(Cl)c2)C1=S` ? Its TGI was 32.4 µM

So, C/C=C/C=N/N(C(=O)c1cc([N+](=O)[O-])cc([N+](=O)[O-])c1)C1=NC(c2ccccc2)C(c2ccccc2)=NN1 (stereo unspecified) ? Its TGI was > 100 µM

So, `ClCc1ccc(-c2ccc(Cn3cnc4c(Cl)nc(Cl)nc43)cc2)cc1` ? Its TGI was 22.6 µM

So, CCCCCC(O)[C@H]1C(=O)C[C@@H](O[Si](C)(C)C(C)(C)C)[C@@H]1/C=C/CCOCc1ccccc1 (stereo partly specified) ? Its TGI was 31.1 µM

So, `CS(=O)(=O)c1nc(-c2cc3c(c(S(C)(=O)=O)n2)CCCC3)cc2c1CCCC2` ? Its TGI was > 64.7 µM

So, `COc1ccc(-c2c(C#N)c(-c3ccc(C)cc3)n(NS(=O)(=O)c3ccccc3)c(=O)c2C#N)cc1` ? Its TGI was > 100 µM

So, `Cc1ccc2c(=O)cc(-c3cccc4ccccc34)[nH]c2n1` ? Its TGI was 2.64 µM

So, `CCOC(=O)/C(=C/c1ccc([N+](=O)[O-])cc1)C(=O)c1ccccc1` ? Its TGI was 23.6 µM

So, `Cc1cc(O)c(C(C)C)cc1CN1CCCCC1` ? Its TGI was > 100 µM

So, COC(=O)C(C)NP(=O)(OCc1ccc(Cn2cnc3c(=O)[nH]c(N)nc32)cc1)Oc1ccccc1 (stereo unspecified) ? Its TGI was > 100 µM

So, `O=C(O)c1ccc(O)c(N=Nc2cc(S(=O)(=O)O)c3ccccc3c2O)c1` ? Its TGI was > 10 µM

So, COC(=O)C(C(=O)C(=O)NC1=C(Cl)C(=O)c2ccccc2C1=O)c1csc(-n2nc(-c3ccccc3)cc2-c2ccccc2)n1 (stereo unspecified) ? Its TGI was > 100 µM

So, COC(=O)N/N=C(/CCN1CCCC1)CC(c1ccccc1)c1c(O)c2ccccc2oc1=O (stereo unspecified) ? Its TGI was > 100 µM

So, `C/C(=N\NC(=O)c1cccnc1)c1cccc(/C(C)=N/NC(=O)c2cccnc2)n1` ? Its TGI was 82.4 µM

So, `NS(=O)(=O)c1ccc(NNc2c3ccccc3nc3ccccc23)cc1` ? Its TGI was 24.5 µM

So, `CN(/N=C/c1cccs1)c1ccc(Cl)cc1[N+](=O)[O-]` ? Its TGI was > 100 µM

So, `N#CC(=S)Nc1ccc(Cl)c(Cl)c1` ? Its TGI was 61.6 µM

So, COC(=O)C(C(=O)C(=O)Nc1ccccc1C(C)=O)c1nc2ccc(Cl)cc2[nH]c1=O (stereo unspecified) ? Its TGI was > 100 µM

So, `C=C1C(=O)O[C@H]2[C@H]1CC/C(COC(=O)CCCCCCCCC(=O)OC/C1=C/CC[C@@]3(C)O[C@H]3[C@H]3OC(=O)C(=C)[C@@H]3CC1)=C\CC[C@@]1(C)O[C@@H]21` ? Its TGI was 25.2 µM

So, CCOC(=O)C(Cc1ccccc1)NC(=O)c1ccc(N=NN(C)C)cc1 (stereo unspecified) ? Its TGI was > 100 µM

So, CCCN1CN(C(C(=O)N[C@@H]2C(=O)N3C2SC(C)(C)C3C(=O)O)c2ccccc2)CSC1=S (stereo partly specified) ? Its TGI was > 100 µM

So, `CN(c1ccccc1)S(=O)(=O)c1ccccc1[N+](=O)[O-]` ? Its TGI was > 100 µM

So, `C#CCOCn1cnc2c(=S)nc[nH]c21` ? Its TGI was > 100 µM
